Study target: FER (human) (UniProt P16591)
Sequence (P16591 whole entry, looked up): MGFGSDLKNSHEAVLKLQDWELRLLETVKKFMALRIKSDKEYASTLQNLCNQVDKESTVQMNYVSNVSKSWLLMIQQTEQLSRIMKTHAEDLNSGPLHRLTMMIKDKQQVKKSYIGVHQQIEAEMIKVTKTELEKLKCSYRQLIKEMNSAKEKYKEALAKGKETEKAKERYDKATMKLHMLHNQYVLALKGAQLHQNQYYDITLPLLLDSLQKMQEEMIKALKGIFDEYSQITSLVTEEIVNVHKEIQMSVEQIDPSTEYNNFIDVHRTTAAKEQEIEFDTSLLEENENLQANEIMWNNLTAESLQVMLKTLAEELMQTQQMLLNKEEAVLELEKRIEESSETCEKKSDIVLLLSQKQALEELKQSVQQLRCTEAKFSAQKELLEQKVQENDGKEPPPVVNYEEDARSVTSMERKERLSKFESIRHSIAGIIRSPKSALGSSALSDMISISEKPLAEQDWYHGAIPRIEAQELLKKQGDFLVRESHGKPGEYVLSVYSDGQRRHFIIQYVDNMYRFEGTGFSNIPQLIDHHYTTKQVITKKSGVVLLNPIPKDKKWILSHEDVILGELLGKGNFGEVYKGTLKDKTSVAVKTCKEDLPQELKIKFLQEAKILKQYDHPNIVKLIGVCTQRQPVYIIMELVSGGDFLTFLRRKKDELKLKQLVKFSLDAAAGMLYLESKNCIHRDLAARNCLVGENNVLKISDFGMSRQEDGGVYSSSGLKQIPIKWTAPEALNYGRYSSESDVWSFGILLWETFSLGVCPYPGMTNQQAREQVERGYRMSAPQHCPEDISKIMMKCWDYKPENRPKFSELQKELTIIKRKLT
Assay remarks: radiometric filter-binding kinase assay, Kinase HotSpot
Test conditions: compound 0.5 µM; ATP 10 µM
This section presents compounds with their documented residual activity values.
Measurement label: residual activity (%)

> print(dat)
                                        smi  assay.value
1     COc1ccc2c(c1)/C(=C/c1cnc[nH]1)C(O)=N2         88.4
2               O=C1c2ccccc2-c2nc3nnnn3nc21         89.1
3               c1ccc2c(-c3ccncc3)c[nH]c2c1         91.6
4  COc1cc2ncnc(Nc3ccc(OCc4ccccc4)cc3)c2cc1OC         90.8
5  COc1ccc(C(=O)Nc2sc3c(c2C(N)=O)CCCC3)cc1OC         89.8

---

Study target: AKT3 (human)
Assay remarks: radiometric filter-binding kinase assay, Kinase HotSpot
Test conditions: compound 0.5 µM; ATP 10 µM
This section presents molecules with their documented residual activity values.
Measurement label: residual activity (%)

> print(dat)
                                         smi  study.target  measurement.label  assay.value
 1       CCCCc1c(-c2ccc(OC)cc2)[nH]c2nccnc12  AKT3 (human)  residual activity          102
 2  O=C1C(Cl)=C(N2C(=O)CCC2=O)C(=O)c2ccccc21  AKT3 (human)  residual activity          105
 3       Fc1ccc(-c2nc3n(c2-c2ccncc2)CCS3)cc1  AKT3 (human)  residual activity          109
 4               c1ccc2c(-c3ccncc3)c[nH]c2c1  AKT3 (human)  residual activity          101
 5  Cc1cncc2cccc(S(=O)(=O)N3CCCN(C(=O)CN)C[C@H]3C)c12  AKT3 (human)  residual activity         98.8
 6    COc1ccc(Cl)cc1NC(=O)Nc1cc(C)nc2ccccc12  AKT3 (human)  residual activity          103
 7  CS(=O)(=O)CCNCc1ccc(-c2ccc3ncnc(Nc4ccc(OCc5cccc(F)c5)c(Cl)c4)c3c2)o1  AKT3 (human)  residual activity         83.5
 8  CN(C)CCCn1cc(C2=C(c3c[nH]c4ccccc34)C(=O)NC2=O)c2ccccc21  AKT3 (human)  residual activity         31.5
 9           Ic1cccc(CSc2nnc(-c3ccncc3)o2)c1  AKT3 (human)  residual activity         90.7
10   N#C/C(=C\c1ccc(O)c(O)c1)C(=O)NCc1ccccc1  AKT3 (human)  residual activity         90.8
11  COc1cc2ncnc(Nc3ccc(Oc4ccccc4)cc3)c2cc1OC  AKT3 (human)  residual activity          105

---

System: PRKCQ (human), Q04759 [P330L]
Sequence (Q04759 whole entry P330L, looked up): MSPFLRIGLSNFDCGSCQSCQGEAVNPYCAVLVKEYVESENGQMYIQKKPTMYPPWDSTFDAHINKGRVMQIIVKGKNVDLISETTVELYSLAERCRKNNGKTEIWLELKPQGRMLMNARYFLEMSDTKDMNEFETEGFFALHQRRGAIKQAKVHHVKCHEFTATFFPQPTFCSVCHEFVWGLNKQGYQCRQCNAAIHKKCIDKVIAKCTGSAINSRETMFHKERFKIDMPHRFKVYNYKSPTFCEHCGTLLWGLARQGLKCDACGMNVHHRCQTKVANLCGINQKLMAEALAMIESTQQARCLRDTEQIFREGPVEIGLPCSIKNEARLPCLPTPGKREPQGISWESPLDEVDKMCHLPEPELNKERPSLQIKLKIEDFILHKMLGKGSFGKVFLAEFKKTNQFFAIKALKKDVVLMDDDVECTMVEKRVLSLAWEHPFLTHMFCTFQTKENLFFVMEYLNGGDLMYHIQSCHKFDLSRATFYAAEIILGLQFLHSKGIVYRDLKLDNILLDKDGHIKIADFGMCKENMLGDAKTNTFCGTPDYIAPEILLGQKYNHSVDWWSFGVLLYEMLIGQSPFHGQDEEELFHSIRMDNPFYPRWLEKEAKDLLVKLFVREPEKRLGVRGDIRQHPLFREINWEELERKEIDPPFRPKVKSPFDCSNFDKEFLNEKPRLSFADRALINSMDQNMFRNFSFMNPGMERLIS
Assay remarks: radiometric filter-binding kinase assay, Kinase HotSpot
Test conditions: compound 0.5 µM; ATP 10 µM
This section presents compounds with their documented residual activity values.
Measurement label: residual activity (%)

> print(dat)
                                    compound  assay.value
 1  O=C1Nc2ccc(Cl)cc2/C1=C/c1cc(Cl)c(O)c(Cl)c1          105
 2  COc1cc2c(cc1OC)-c1[nH]nc(Nc3cccc(F)c3)c1C2          108
 3  CC(C)[C@H](CO)Nc1nc(Nc2cc(N)cc(Cl)c2)c2ncn(C(C)C)c2n1          119
 4  O=C1Nc2ccccc2/C1=C1/Nc2ccccc2/C1=N\OCCC(O)CO (centres undefined)         92.9
 5  N#CCCc1ccc2c(c1)-c1[nH]c3ccc([N+](=O)[O-])cc3c1CC(=O)N2          111
 6  CCN(CC)CCNC(=O)c1c(C)[nH]c(/C=C2\C(=O)Nc3ccc(F)cc32)c1C         63.5
 7  Cc1cncc2cccc(S(=O)(=O)N3CCCN(C(=O)CN)C[C@H]3C)c12          105
 8  CCCC(=O)Oc1ccc2[nH]c(C(=O)c3cc4ccccc4[nH]3)cc2c1          111
 9  CNC(=O)c1cc(Oc2ccc(NC(=O)Nc3ccc(Cl)c(C(F)(F)F)c3)cc2)ccn1          100
10          O=C(c1ccccc1)c1ccc(N2CCOCC2)cc1O         92.5
11       CCOc1cc2ncnc(Nc3cccc(Br)c3)c2cc1OCC         89.2
12  N#C/C(=C(/N)Sc1ccc(N)cc1)c1ccccc1C(F)(F)F          104
13  Cn1cc(/C=C2\C(=O)Nc3ccc(S(N)(=O)=O)cc32)c2ccccc21          103
14  Nc1nccc(-c2c(-c3ccc(F)cc3)ncn2C2CCNCC2)n1          107
15  Nc1ncnc2c1c(-c1ccc(Oc3ccccc3)cc1)cn2C1CCCC1          131
16  COc1cc2c(N3CCN(C(=O)Nc4ccc(OC(C)C)cc4)CC3)ncnc2cc1OCCCN1CCCCC1          103
17  CCCNC(=O)Nc1ccc(Oc2ncnc3cc(OC)c(OC)cc23)cc1Cl          102
18  CS(=O)c1ccc(-c2nc(-c3ccc(F)cc3)c(-c3ccncc3)[nH]2)cc1 (centres undefined)          111
19  COc1cc2ncnc(Nc3ccc(F)c(Cl)c3)c2cc1OCCCN1CCOCC1         85.9
20  CCN(CC)C(=O)c1ccc(Nc2nc(OCC3CCCCC3)c3nc[nH]c3n2)cc1         97.9
21  O=C(Nc1cccc(Nc2nccc(Nc3cccc(C(F)(F)F)c3)n2)c1)C1CC1          107
22  O=C1Cc2c([nH]c3ccc([N+](=O)[O-])cc23)-c2ccccc2N1         98.2
23  Cc1ccc(NC(=O)c2ccc(CN3CCN(C)CC3)cc2)cc1Nc1nc(-c2cccnc2)cs1          103
24                 Cn1sc(=O)n(Cc2ccccc2)c1=O          100

---

This section presents compounds with their documented residual activity values.
Study target: OXSR1 (human)
Assay remarks: radiometric filter-binding kinase assay, Kinase HotSpot
Test conditions: compound 0.5 µM; ATP 10 µM
Measurement label: residual activity

> print(dat)
                                        smi  assay.value
1            Cc1nc(-c2ccccc2)c(-c2ccncc2)o1         102%
2  COc1cc2ncnc(Nc3ccc(Oc4ccccc4)cc3)c2cc1OC        97.5%
3      CN(C)c1ccc(/C=C2\C(=O)Nc3ccccc32)cc1         106%
4    COc1ccc(Cl)cc1NC(=O)Nc1cc(C)nc2ccccc12         101%

---

Study target: MAPKAPK2 (human)
Assay remarks: radiometric filter-binding kinase assay, Kinase HotSpot
Test conditions: compound 0.5 µM; ATP 10 µM
Measurement label: residual activity (%)

> print(dat)
                                         smi  unit.name  assay.value
 1  O=C(c1cc2cc(O)ccc2[nH]1)c1cc2cc(O)ccc2[nH]1          %          103
 2  COc1cc2ncnc(Nc3ccc(Oc4ccccc4)cc3)c2cc1OC          %          103
 3  COc1ccc2c(c1)c(C1=C(c3c[nH]c4ccccc34)C(=O)NC1=O)cn2CCCN(C)C          %         99.7
 4  CN(C)S(=O)(=O)c1ccc2c(c1)/C(=C/c1cc3c([nH]1)CCCC3)C(=O)N2          %          101
 5  COc1cc(Nc2c(C#N)cnc3cc(OCCCN4CCN(C)CC4)c(OC)cc23)c(Cl)cc1Cl          %         94.7
 6               O=C1c2ccccc2-c2nc3nnnn3nc21          %          104
 7            Cc1nc(-c2ccccc2)c(-c2ccncc2)o1          %          101
 8    O=C1NC(=O)c2c1c1c3ccccc3[nH]c1n1cncc21          %         98.9
 9  CN(C)CCCn1cc(C2=C(c3c[nH]c4ccccc34)C(=O)NC2=O)c2ccccc21          %         85.4
10  CO[C@@H]1[C@H](N(C)C(=O)c2ccccc2)C[C@H]2O[C@]1(C)n1c3ccccc3c3c4c(c5c6ccccc6n2c5c31)C(=O)NC4          %         97.8
11   N#C/C(=C\c1ccc(O)c(O)c1)C(=O)NCc1ccccc1          %          101
12  COc1ccc(S(=O)(=O)N(CCO)c2ccccc2CN(C)C/C=C/c2ccc(Cl)cc2)cc1          %          102
13      CN(C)c1ccc(/C=C2\C(=O)Nc3ccccc32)cc1          %          106
14  N#Cc1c[nH]c2c[nH]/c(=N\Cc3cccnc3)cc2/c1=N\c1ccc(F)c(Cl)c1          %          100
15  NC(=O)c1cccc(-c2cc(Nc3ccc(OC(F)(F)F)cc3)ncn2)c1          %         97.3
16  COc1cc2ncnc(Nc3ccc(OCc4ccccc4)cc3)c2cc1OC          %          106
